experiment: Inhibition of porcine tubulin polymerization after 45 mins by turbidometric method; set-up: species or system Sus scrofa
Measure: IC50

Take a look at these entries with their results.
• N#Cc1ccc(N2CCN(C(=O)N3c4ccccc4Oc4ccccc43)CC2)cc1 = > 10 µM
• COc1cccc(CNC(=O)N2c3ccccc3Oc3ccccc32)c1 = 8.53 µM
• COc1cccc(N2CCN(C(=O)N3c4ccccc4Oc4ccccc43)CC2)c1 = 0.69 µM

INPUT: // fetch IC50 given entry `COc1cccc(N2CCN(C(=O)N3c4cc(Cl)ccc4Oc4ccc(Cl)cc43)CC2)c1`
OUTPUT: 0.9 µM

INPUT: Give IC50 for the following molecule: `COc1ccc(N2CCN(C(=O)N3c4ccccc4Oc4cc(C#N)ccc43)CC2)cc1`
OUTPUT: 3.38 µM

* * *

system: K562; test: Antiproliferative activity against human K562 cells after 48 hrs by Alamar blue dye based neubauer hemocytometer method; format: functional, cell-based; conditions: K562, 48 h
# key: entry, value: pIC50
pIC50 here: minus log base 10 of the concentration, concentration in moles per litre.

Here's what some known entries look like.
* COc1cccc(N2CCN(C(=O)N3c4ccccc4Sc4ccccc43)CC2)c1 | 7.70
* COc1ccc(N2CCN(C(=O)N3c4ccccc4Sc4ccccc43)CC2)cc1 | 5.43
* COc1cccc(N2CCN(C(=O)N3c4ccccc4C=Cc4ccccc43)CC2)c1 | 6.03

INPUT: For the molecule `COc1ccc(N2CCN(C(=O)N3c4ccccc4Oc4ccccc43)CC2)cc1` , give its reported pIC50.
OUTPUT: 5.50

INPUT: Identify measured pIC50 associated with `COc1ccc(CNC(=O)N2c3ccccc3Oc3ccccc32)cc1`
OUTPUT: 4.72

* * *

tested on: K562; assay: Antiproliferative activity against human K562 cells after 48 hrs by Alamar blue dye based neubauer hemocytometer method; assay type: functional, cell-based; conditions: K562, 48 h
Measure: pIC50
Bear in mind: pIC50 is minus log10 of a mol/L concentration; give just that figure.

- c1ccc2c(c1)Nc1ccccc1O2 [PHENOXAZINE]: 4.77

Let us move to another entry and its pIC50.
INPUT: Check the records and state pIC50 for `COc1ccc(N2CCN(C(=O)N3c4ccccc4Sc4ccc(Cl)cc43)CC2)cc1`
OUTPUT: 5.72

* * *

# key: entry, value: pIC50
experiment: Inhibition of porcine tubulin polymerization after 45 mins by turbidometric method; parameters: species or system Sus scrofa
Bear in mind: pIC50 is minus log10 of a mol/L concentration; give just that figure.

Please review the following examples before continuing.
* COc1ccccc1N1CCN(C(=O)N2c3ccccc3Oc3ccccc32)CC1 | 6.19
* COc1cccc(N2CCN(C(=O)N3c4ccccc4Oc4ccc(Cl)cc43)CC2)c1 | 6.10
* COc1cccc(N2CCN(C(=O)N3c4ccccc4Sc4ccc(Cl)cc43)CC2)c1 | 6.04
* COc1ccccc1N1CCN(C(=O)N2c3ccccc3Oc3cc(C#N)ccc32)CC1 | 6.49
* COc1ccccc1N1CCN(C(=O)N2c3cc(Cl)ccc3Oc3ccc(Cl)cc32)CC1 | 5.92

INPUT: State its pIC50 for this compound: `O=C(N1CCN(c2ccccc2)CC1)N1c2ccccc2Oc2ccccc21`
OUTPUT: 5.86

INPUT: Answer with the recorded pIC50 for the compound listed here: `COc1ccccc1N1CCN(C(=O)N2c3ccccc3Oc3ccc(Cl)cc32)CC1`
OUTPUT: 6.21

INPUT: Dear colleague, please send me the reported pIC50 for `COc1ccc(CNC(=O)N2c3ccccc3Oc3ccccc32)cc1` when you can.
OUTPUT: 5.05

INPUT: Retrieve pIC50 measured for `COc1ccc(N2CCN(C(=O)N3c4ccccc4Oc4ccccc43)CC2)cc1` and print it.
OUTPUT: 4.84

INPUT: // Input: `O=C(N1CCN(c2ccc(Cl)cc2)CC1)N1c2ccccc2Oc2ccccc21` . Output its pIC50 only.
OUTPUT: 6.08

INPUT: For `COc1cccc(N2CCN(C(=O)N3c4ccccc4C=Cc4ccccc43)CC2)c1` , write its pIC50.
OUTPUT: 5.45

INPUT: Supply recorded pIC50 for `COc1ccccc1N1CCN(C(=O)N2c3ccccc3Sc3ccccc32)CC1` here.
OUTPUT: 6.22

INPUT: Tell us which pIC50 value is on record for `COc1cccc(N2CCN(C(=O)N3c4ccccc4Sc4ccccc43)CC2)c1`
OUTPUT: 6.26

* * *

test system: K562; assay: Antiproliferative activity against human K562 cells after 48 hrs by Alamar blue dye based neubauer hemocytometer method; format: functional, cell-based; conditions: K562, 48 h
Note to self: use MET only for IC50 readings below 200 nM; a reading exactly at 200 nM still gets NOT MET.

Consider the following illustrative entries.
* COc1cccc(N2CCN(C(=O)N3c4cc(Cl)ccc4Oc4ccc(Cl)cc43)CC2)c1 | MET
* COc1cccc(N2CCN(C(=O)N3c4ccccc4Sc4ccc(Cl)cc43)CC2)c1 | MET
* O=C(N1CCN(c2ccc(Cl)cc2)CC1)N1c2ccccc2Oc2ccccc21 | NOT MET
* O=C(N1CCN(c2ccc([N+](=O)[O-])cc2)CC1)N1c2ccccc2Oc2ccccc21 | NOT MET
* O=C(N1CCN(c2ccc(C(F)(F)F)cc2)CC1)N1c2ccccc2Oc2ccccc21 | NOT MET
* COc1ccccc1N1CCN(C(=O)N2c3ccccc3CCc3ccccc32)CC1 | NOT MET
* COc1cccc(N2CCN(CC(=O)N3c4ccccc4Oc4ccccc43)CC2)c1 | NOT MET
* COc1ccccc1N1CCN(C(=O)N2c3cc(Cl)ccc3Oc3ccc(Cl)cc32)CC1 | MET

INPUT: Could you please tell me whether IC50 recorded for `COc1cccc(N2CCN(C(=O)N3c4ccccc4Oc4ccccc43)CC2)c1` is less than 200 nM?
OUTPUT: MET

INPUT: IC50 under 200 nM? Item: `COc1ccccc1N1CCN(C(=O)N2c3ccccc3Oc3cc(C#N)ccc32)CC1`
OUTPUT: MET

* * *

Listed below: IC50 values for each entry.
tested on: K562; experiment: Antiproliferative activity against human K562 cells after 48 hrs by Alamar blue dye based neubauer hemocytometer method; type: functional, cell-based; settings: K562, 48 h
Express it in nM; write the number only.

- COc1ccccc1N1CCN(C(=O)N2c3ccccc3Oc3ccccc32)CC1: 20
- N#Cc1ccc(N2CCN(C(=O)N3c4ccccc4Sc4ccccc43)CC2)cc1: 390
- COc1cccc(N2CCN(C(=O)N3c4ccccc4Oc4cc(C#N)ccc43)CC2)c1: 7
- CC[C@]1(O)C[C@H]2CN(CCc3c([nH]c4ccccc34)[C@@](C(=O)OC)(c3cc4c(cc3OC)N(C)[C@H]3[C@@](O)(C(=O)OC)[C@H](OC(C)=O)[C@]5(CC)C=CCN6CC[C@]43[C@@H]65)C2)C1: 1

// below: IC50 requested for another compound
INPUT: Using known records, supply IC50 for `COc1ccccc1N1CCN(C(=O)N2c3ccccc3Sc3ccc(Cl)cc32)CC1`
OUTPUT: 90

* * *

experiment: Inhibition of porcine tubulin polymerization after 45 mins by turbidometric method; set-up: species or system Sus scrofa
Measure: IC50 (µM)
Value expressed in µM; do not type the unit.

INPUT: Hello, please tell me recorded IC50 for this one: `COc1ccccc1N1CCN(C(=O)N2c3ccccc3CCc3ccccc32)CC1`
OUTPUT: 10.7

INPUT: Using known records, supply IC50 for `COc1ccccc1N1CCN(C(=O)N2c3ccccc3C=Cc3ccccc32)CC1`
OUTPUT: 2.83

INPUT: Complete the entry with IC50 for `O=C(N1CCN(c2ccccc2)CC1)N1c2ccccc2Sc2ccccc21`
OUTPUT: 0.81

INPUT: Give IC50 for the following compound: `COc1cccc(N2CCN(C(=O)N3c4ccccc4Oc4cc(C#N)ccc43)CC2)c1`
OUTPUT: 0.36

INPUT: Indicate the recorded IC50 value for this compound: `COc1ccccc1N1CCN(C(=O)N2c3ccccc3Sc3ccc(Cl)cc32)CC1`
OUTPUT: 0.51

* * *

system: K562; assay: Antiproliferative activity against human K562 cells after 48 hrs by Alamar blue dye based neubauer hemocytometer method; type: functional, cell-based; conditions: K562, 48 h
Entries and their pIC50 values follow.
Keep it numeric: pIC50 is minus log10 of the concentration in mol/L.

Below, each entry is followed by its recorded pIC50 result.
* COc1cccc(CNC(=O)N2c3ccccc3Oc3ccccc32)c1 | 5.22
* O=C(N1CCN(c2ccccc2)CC1)N1c2ccccc2Sc2ccccc21 | 6.89
* COc1cccc(N2CCN(C(=O)N(c3ccccc3)c3ccccc3)CC2)c1 | 4.74
* Cc1ccc(N2CCN(C(=O)N3c4ccccc4Oc4ccccc43)CC2)cc1 | 5.86
* COc1ccc(N2CCN(C(=O)N3c4ccccc4Oc4cc(C#N)ccc43)CC2)cc1 | 5.43

INPUT: For the compound `COc1ccccc1N1CCN(C(=O)N2c3ccccc3C=Cc3ccccc32)CC1` , give its reported pIC50.
OUTPUT: 6.35

INPUT: Specify pIC50 for `COc1ccccc1N1CCN(C(=O)N2c3ccccc3Oc3ccc(Cl)cc32)CC1` and stop.
OUTPUT: 7.52

INPUT: Specify reported pIC50 for the compound shown: `O=C(N1CCN(c2ccccc2)CC1)N1c2ccccc2Oc2ccccc21`
OUTPUT: 7.52

INPUT: Recall and state the measured pIC50 for `COc1ccccc1N1CCN(CC(=O)N2c3ccccc3Oc3ccccc32)CC1` .
OUTPUT: 5.05

INPUT: Return value of pIC50 for input `COc1ccccc1N1CCN(C(=O)N2c3ccccc3Sc3ccccc32)CC1` , no commentary.
OUTPUT: 7.70

INPUT: Provide only the value of recorded pIC50 for `COc1cccc(N2CCN(C(=O)N3c4ccccc4Oc4ccc(Cl)cc43)CC2)c1`
OUTPUT: 7.52
